MEASUREMENT PROTOCOL: small-molecule microarray binders of probe aEGFR, primary screen, biochemical, biotinylated probe, 635/667 nm fluorescence (AID 1097);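 also: probe is a biotinylated anti-EGFR antibody binding compounds printed on slides; score combines fluorescence near 667 nm and signal to noise of each spot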
PROTOCOL CONDITIONS: higher = more signal
So basically: composite z-score at 0.06 or higher? That is Met. Lower than 0.06? That is Not met.

# bool: composite z-score of O=C1OCCC/C=C\[C@H]2OC34C=CCN(Cc5ccccc5)C(=O)[C@H]3N(CCO)C(=O)[C@@H]4C12 (stereo partly specified) >= 0.06
Met

Is composite z-score at least 0.06? Consider `C=CCOC(=O)[C@H]1[C@@H]2C(=O)O[C@@H](c3ccccc3)[C@@H](c3ccccc3)N2[C@@H](c2ccc(OCCOC(=O)[C@@H]3C[C@@H]4C(=O)N[C@@H](Cc5ccccc5)C(=O)N4[C@@H]3c3ccc(O)cc3)cc2)[C@]12C(=O)Nc1ccc(I)cc12`
Not met

// inclusive: composite z-score at least 0.06? input: `C=C(C(=O)CC[C@H](OC(=O)c1ccccc1-c1ccccc1C(=O)O)c1ccc(OCCO)cc1)C(C)C`
Met

Check this compound for composite z-score at or above 0.06: `Cc1ccc(S[C@]2(C(=O)NC(C)C)CC(=O)N(Cc3ccccc3)[C@@H]2c2ccc(CO)cc2)cc1`
Not met

Does the compound `COC(=O)[C@@]1(Cc2ccc(F)cc2)[C@H]2c3cc(C(=O)N4CCCC4)n(CCc4c[nH]c5cc(F)ccc45)c3C[C@H]2CN1C(=O)c1ccccc1` have recorded composite z-score that is 0.06 or more?
Met

Could you verify whether the entry `COC(=O)C[C@H]1O[C@]2(C(=O)N(C)c3ccccc32)[C@@H](C)[C@@H]1[Si](C)(C)c1ccccc1` shows composite z-score of no less than 0.06?
Not met
